Data provenance is PubChem BioAssay (NCI).

# Tested on: MALME-3M melanoma
# experiment_notes: NCI-60 one-dose screen, 48 h (100 = growth as untreated, 0 = no growth, -100 = all killed)
# measurement_context: 10 µM unless noted
Compounds without any hit were thinned out: in the full panel of roughly 83,000, 20% have a hit.
Please enter 1 where growth is greater than or equal to 80%, and -1 where it is lower.

Please tell me: is the compound CCCCCCCOC(C(=O)OCCN(CC)CC)(c1ccccc1)c1ccccc1 at or over 80% in terms of growth?
1

Please tell me: is the compound CC1CCCC(C[N+](C)(C)C)C1=O (stereo not given) at or over 80% in terms of growth?
-1

Please tell me: is the compound C[C@@]12CC[C@@H](O)C[C@@H]1CC[C@H]1[C@H]2CC[C@@]2(C)[C@H](c3ccc(=O)oc3)CC[C@@]12O at or over 80% in terms of growth?
-1

Please tell me: is the compound NC1CC2CCCCC2CC1(O)c1ccccc1 (stereo not given) at or over 80% in terms of growth?
1

Please tell me: is the compound CCOC(=O)[C@@H](C)C[C@H](Cc1ccccc1)NC(=O)c1csc([C@@H](C[C@H](C(C)C)N(C)C(=O)[C@H](CC)NC(=O)[C@H]2CCCCN2C)OC(C)=O)n1 at or over 80% in terms of growth?
-1
